System: HEK-293T
Assay comment: Multiplex assay against HEK293T
Format: toxicity, cell-based
Condition label: human, 12 h, 1 µM, compound concentration 1 uM, replicate 1
Parameter measured: Population Pyknosed Nuclei (%)
// return numeric value only (unit: %, not printed)

# Molecule, Unit annotation, Population Pyknosed Nuclei (%)
measured = [
    ("N[C@](CC1c2ccccc2Oc2ccccc21)(C(=O)O)[C@H]1C[C@@H]1C(=O)O", "%", 10),
    ("Cc1c(Cc2ccc3ccccc3n2)c2cc(F)ccc2n1CC(=O)O", "%", 11),
    ("CSc1nc(NC2CCCC2)c([N+](=O)[O-])c(NC2CCCC2)n1", "%", 14),
]

Form field Population Pyknosed Nuclei (%), entry COc1cc(Nc2ncc3c(n2)-c2ccc(Cl)cc2C(c2c(F)cccc2OC)=NC3)ccc1C(=O)O : 7

Short answer for Cc1cc(O)c(-c2ccc([C@@H](C)CN(C)C)cc2)c2c1[nH]c(=O)c1sccc12 : Population Pyknosed Nuclei (%) was 36

The recorded Population Pyknosed Nuclei (%) for CC(F)(F)CN1CCOc2c(nn(-c3ccccc3Cl)c2-c2ccc(Cl)cc2)C1=O is 12

Short answer for CCc1nn2c(C)cc(C)nc2c1Cc1ccc(-c2nnc(C3CCNCC3)o2)cc1 : Population Pyknosed Nuclei (%) was 10

Data point: COc1ccc2[nH]c(I)c(CCNC(C)=O)c2c1 ; Population Pyknosed Nuclei (%) = 14

###

Let's look at some compounds and their measured Population Apoptotic (%).
Test system: Fibroblast
Assay comment: Multiplex assay against human fibroblast
Type: toxicity, cell-based
Condition label: 24 h, 1 µM, compound concentration 1 uM, replicate 1
# number only, unit % dropped from output

# Compound, Tested system, Unit annotation, Number
records = [
    ("CCC(=O)OCC(=O)[C@@]1(OC(=O)CC)[C@@H](C)C[C@H]2[C@@H]3CCC4=CC(=O)C=C[C@]4(C)[C@@]3(Cl)[C@@H](O)C[C@@]21C [BECLOMETHASONE DIPROPIONATE]", "Fibroblast", "%", 50),
    ("COc1cc(OC2CCN(C(C)=O)CC2)ccc1C(=O)N1CCC(N2C(=O)OCc3ccccc32)CC1", "Fibroblast", "%", 63),
    ("CN1CCN2c3ccccc3Cc3ccccc3C2C1.Cl (stereo not drawn) [MIANSERIN HYDROCHLORIDE]", "Fibroblast", "%", 52),
    ("COCCCN1CCC(NC(=O)c2cc(Cl)c(N)c3c2OCC3)CC1 [PRUCALOPRIDE]", "Fibroblast", "%", 48),
    ("O=c1nc2[nH]c3ccccc3nc-2c(=O)[nH]1 [ALLOXAZINE]", "Fibroblast", "%", 52),
]

Fibroblast Population Apoptotic (%) of CN1CCC(C(=O)c2cccc(NC(=O)c3c(F)cc(F)cc3F)n2)CC1 is 45

The reported Fibroblast Population Apoptotic (%) of CCCCCCNC(=O)Nc1ccc(S(=O)(=O)Nc2ccc(CCNC[C@H](O)COc3ccc(O)cc3)cc2)cc1 [L-755507] is 31

Form field Population Apoptotic (%) for item COc1c(Nc2ccc(S(C)(=O)=O)nc2C)ncnc1OC1CCN(C(=O)OC(C)C)CC1 [ADP-597] on Fibroblast: 47

###

Tested on: U2OS
Assay comment: Multiplex assay against U2OS
Format: toxicity, cell-based
Condition label: human, 24 h, 10 µM, compound concentration 10 uM, replicate 2
Parameter measured: Population Mitochondria Different-Phenotype (%)
Report the value in % with no unit label.

The cases that follow already have their Population Mitochondria Different-Phenotype (%) on record.
# Molecule, Number
records = [
    ("COc1cc(C(=O)N2CC[C@@H](O)[C@@H](N)C2)cc2nc(-c3cc4ccccc4n3CC3CC3)n(C)c12.Cl", 85),
    ("CCc1nn2c(C)cc(C)nc2c1Cc1ccc(-c2nnc(C3CCNCC3)o2)cc1", 61),
    ("CC(C)(O)C(=O)N1CCN(c2ccc(C(F)(F)F)c(C3=C(c4c[nH]c5ccccc45)C(=O)NC3=O)c2)CC1", 24),
]

The molecule Nc1nc(CC(=O)Nc2ccc(CCNC[C@H](O)c3ccccc3)cc2)cs1 [MIRABEGRON] , tested on U2OS, showed Population Mitochondria Different-Phenotype (%) of 5

Record COc1ccc2[nH]c(I)c(CCNC(C)=O)c2c1 [IODOMELATONIN] has U2OS Population Mitochondria Different-Phenotype (%) equal to 5

The measured Population Mitochondria Different-Phenotype (%) that CN1CCC(C(=O)c2cccc(NC(=O)c3c(F)cc(F)cc3F)n2)CC1 showed for U2OS is 15

Record COc1cc(Nc2ncc3c(n2)-c2ccc(Cl)cc2C(c2c(F)cccc2OC)=NC3)ccc1C(=O)O [ALISERTIB] ; system U2OS; Population Mitochondria Different-Phenotype (%) = 4

Bench note, U2OS: entry O=C(O)CCC/C=C\CC1C(O)CC(O)C1/C=C/C(O)COc1cccc(Cl)c1 (centres undefined) [CLOPROSTENOL] , its Population Mitochondria Different-Phenotype (%) = 4

The molecule Cc1ccc(OCC(O)C(C)NC(C)C)c2c1CCC2.Cl (centres undefined) , when measured on U2OS, yielded Population Mitochondria Different-Phenotype (%) of 11

###

Listed next: entries and their corresponding Population Membrane Permeable-Phenotype (%).
Test system: U2OS
Assay comment: Multiplex assay against U2OS
Format: toxicity, cell-based
Condition label: human, 48 h, 10 µM, compound concentration 10 uM, replicate 1
// units = %; emit number, no label

Example cases with answers are listed next.
# Compound, Tested system, Number
rows = [
    ("N[C@](CC1c2ccccc2Oc2ccccc21)(C(=O)O)[C@H]1C[C@@H]1C(=O)O", "U2OS", 4),
    ("O=c1ccc2ccc(OCCCCN3CCN(c4cccc5sccc45)CC3)cc2[nH]1", "U2OS", 45),
    ("COc1cc(Nc2ncc3c(n2)-c2ccc(Cl)cc2C(c2c(F)cccc2OC)=NC3)ccc1C(=O)O", "U2OS", 16),
]

What the record says about COc1ccc2c(c1OCc1ccccc1)C[C@@H](C(=O)O)N(C(=O)C(c1ccccc1)c1ccccc1)C2 : Population Membrane Permeable-Phenotype (%) is 5

The recorded Population Membrane Permeable-Phenotype (%) for entry CCC(=O)OCC(=O)[C@@]1(OC(=O)CC)[C@@H](C)C[C@H]2[C@@H]3CCC4=CC(=O)C=C[C@]4(C)[C@@]3(Cl)[C@@H](O)C[C@@]21C [BECLOMETHASONE DIPROPIONATE] equals 20

So, CN1CCN2c3ccccc3Cc3ccccc3C2C1.Cl (stereo not drawn) [MIANSERIN HYDROCHLORIDE] ? Its Population Membrane Permeable-Phenotype (%) was 4

Just so you know, measured Population Membrane Permeable-Phenotype (%) for Cc1cc(-c2ccc3c(c2)CC[C@H]3N2CC3(CCN(C(=O)Cc4cn5cc(C)sc5n4)CC3)C2)ncn1 came out at 5

Entry C=CCN1C[C@H](C(=O)N(CCCN(C)C)C(=O)NCC)C[C@@H]2c3cccc4[nH]cc(c34)C[C@H]21 , Population Membrane Permeable-Phenotype (%) reported as 7

###

Known Population Apoptotic (%) of a selection of compounds
System: U2OS
Assay comment: Multiplex assay against U2OS
Type: toxicity, cell-based
Condition label: human, 48 h, 10 µM, compound concentration 10 uM, replicate 2
Please state the figure in %; there is no need to write the unit.

Below are worked cases with known answers.
# Compound, Parameter measured, Number
measured = [
    ("CCCCC[C@H](O)/C=C/[C@H]1[C@H](O)CC(=O)[C@@H]1CCCCCCC(=O)O", "Population Apoptotic (%)", 100),
    ("COc1c(Nc2ccc(S(C)(=O)=O)nc2C)ncnc1OC1CCN(C(=O)OC(C)C)CC1", "Population Apoptotic (%)", 92),
    ("COc1cc2nc(N3CCN(C(=O)COc4c(OC)cccc4C(C)C)CC3)nc(N)c2cc1OC.Cl.Cl", "Population Apoptotic (%)", 93),
    ("Cc1c(Cc2ccc3ccccc3n2)c2cc(F)ccc2n1CC(=O)O", "Population Apoptotic (%)", 92),
    ("C=CCN1C[C@H](C(=O)N(CCCN(C)C)C(=O)NCC)C[C@@H]2c3cccc4[nH]cc(c34)C[C@H]21", "Population Apoptotic (%)", 87),
]

Population Apoptotic (%) reported for this compound CN1C[C@H](C(=O)N[C@]2(C)O[C@@]3(O)[C@@H]4CCCN4C(=O)[C@H](Cc4ccccc4)N3C2=O)C[C@@H]2c3cccc4[nH]cc(c34)C[C@H]21.CS(=O)(=O)O [DIHYDROERGOTAMINE MESYLATE] : 100

Value of Population Apoptotic (%) reported for the compound Cc1cc(-c2ccc3c(c2)CC[C@H]3N2CC3(CCN(C(=O)Cc4cn5cc(C)sc5n4)CC3)C2)ncn1 is 76

###

Tested on: Fibroblast
Assay comment: Multiplex assay against human fibroblast
Format: toxicity, cell-based
Condition label: 48 h, 1 µM, compound concentration 1 uM, replicate 1
# Population Normal (%) values compiled below
# output: numeric value plus its unit

get_value(item= Cc1ccc(OCC(O)C(C)NC(C)C)c2c1CCC2.Cl (stereo unspecified) , readout=Population Normal (%)) returns 95%

Looking up Cn1cc(C(=O)OCC2CCN(CCNS(C)(=O)=O)CC2)c2ccccc21 , I found its Population Normal (%) recorded as 94%

# Population Normal (%) (compound: OCCCNc1cc(-c2ccnc(Nc3cccc(Cl)c3)n2)ccn1 ) is 91%

// field: Population Normal (%); key: COC(c1ccccc1)(c1ccccc1)[C@H](Oc1nc(C)cc(C)n1)C(=O)O ; value = 95%

Entry Cc1c(Cc2ccc3ccccc3n2)c2cc(F)ccc2n1CC(=O)O — recorded Population Normal (%) = 92%

The recorded Population Normal (%) for entry O=c1ccc2ccc(OCCCCN3CCN(c4cccc5sccc45)CC3)cc2[nH]1 equals 95%
